# TEST TARGET: human liver glycogen phosphorylase a (HLGPa) (Homo sapiens, UniProt P06737)
# Construct: creating a full-length cDNA fused at the 5′ end to codons for methionine-glycine-alanine-histidine; 6xHis tag (leader Met-Gly-Ala-His6-Gly-Gly) (N); made in house; host or cells: E. coli (bacterial expression plasmid pTXK1007LTev)
# PROTOCOL NOTES: Human liver glycogen phosphorylase a enzymatic activity assay (coupled, fluorescent resorufin readout, with and without 10 mM glucose)
# Type: biochemical
# CONDITION: human liver glycogen phosphorylase a enzymatic activity assay
ASSAY ENDPOINT: IC50 (µM)

substance_smiles=O=C(Nc1ccccc1Cl)Nc1cc2ccccc2cc1C(=O)N[C@@H](CO)C(=O)O assay_endpoint=IC50 recorded_result=24.1
substance_smiles=Cc1cc(C)c(NC(=O)Nc2cc(N)ccc2C(=O)N[C@H](C(=O)O)C2CCCCC2)c(C)c1 assay_endpoint=IC50 recorded_result=0.11
substance_smiles=CSCC[C@H](NC(=O)c1cc2ccccc2cc1NC(=O)Nc1ccccc1C)C(=O)O assay_endpoint=IC50 recorded_result=18.9
substance_smiles=Cc1cc(C)c(NC(=O)Nc2sc(-c3ccc(OC(F)(F)F)cc3)cc2C(=O)N[C@H](C(=O)O)C2CCCCC2)c(C)c1 assay_endpoint=IC50 recorded_result=0.33
substance_smiles=O=C(O)CC[C@H](NC(=O)c1cc2ccccc2cc1NC(=O)Nc1ccccc1Cl)C(=O)O assay_endpoint=IC50 recorded_result=10.4

1: COc1cc(NC(=O)Nc2c(C)cccc2Cl)c(C(=O)N[C@@H](CC(C)C)C(=O)O)cc1OC
2: Cc1cccc(C)c1NC(=O)Nc1cc2ccccc2cc1C(=O)NCC(=O)O
Task item: Which of the two items, 1 and 2 , has the greater recorded IC50? # reply format: chosen label
Reply: 1

====

# TEST TARGET: human liver glycogen phosphorylase a (HLGPa) (Homo sapiens)
# Construct: creating a full-length cDNA fused at the 5′ end to codons for methionine-glycine-alanine-histidine; 6xHis tag (leader Met-Gly-Ala-His6-Gly-Gly) (N); made in house; host or cells: E. coli (bacterial expression plasmid pTXK1007LTev)
# PROTOCOL NOTES: Human liver glycogen phosphorylase a enzymatic activity assay (coupled, fluorescent resorufin readout, with and without 10 mM glucose)
# Assay type: biochemical
# CONDITION: human liver glycogen phosphorylase a enzymatic activity assay
ASSAY ENDPOINT: IC50 (µM)

substance_smiles=Cc1cc(C)c(NC(=O)Nc2cc3ccccc3cc2C(=O)Nc2cccc(C(=O)O)c2)c(C)c1 readout_units=µM recorded_result=0.3

a: O=C(Nc1cc(-c2ccncc2)sc1C(=O)O)Nc1c(Cl)cccc1Cl
b: Cc1noc(C)c1NC(=O)Nc1cc2ccccc2cc1C(=O)N[C@@H](CC(=O)O)C(=O)O
Task item: Which of these two has the smaller recorded IC50: a or b ? # reply format: chosen label
Reply: a

====

# TEST TARGET: human liver glycogen phosphorylase a (HLGPa) (Homo sapiens)
# Construct: creating a full-length cDNA fused at the 5′ end to codons for methionine-glycine-alanine-histidine; 6xHis tag (leader Met-Gly-Ala-His6-Gly-Gly) (N); made in house; host or cells: E. coli (bacterial expression plasmid pTXK1007LTev)
# PROTOCOL NOTES: Human liver glycogen phosphorylase a enzymatic activity assay (coupled, fluorescent resorufin readout, with and without 10 mM glucose)
# Type: biochemical
# CONDITION: human liver glycogen phosphorylase a enzymatic activity assay
ASSAY ENDPOINT: IC50 (nM)

Example entries begin here.
molecule=Cc1cccc(Cl)c1NC(=O)Nc1cc2ccccc2cc1C(=O)N[C@@H](CCCNC(=N)N)C(=O)O readout_units=nM recorded_result=2730
molecule=Cc1cccc(Cl)c1NC(=O)Nc1cc2ccccc2cc1C(=O)N[C@H](C(=O)O)C(C)C readout_units=nM recorded_result=1710
molecule=O=C(Nc1sc(Cc2ccccc2)cc1C(=O)O)Nc1c(Cl)cccc1Cl readout_units=nM recorded_result=14300
molecule=Cc1cc(C2CC2)cc(C)c1NC(=O)Nc1cc(-c2cccc(F)c2)ccc1C(=O)N[C@H](C(=O)O)[C@@H](C)OC(C)(C)C readout_units=nM recorded_result=21
molecule=Cc1cccc(Cl)c1NC(=O)Nc1ccccc1C(=O)N[C@@H](CC(=O)O)C(=O)O readout_units=nM recorded_result=24500

P: O=C(Nc1cc(Cl)ccc1C(=O)N[C@H](C(=O)O)C1CCCCC1)Nc1c(Cl)cc(Cl)cc1Cl
Q: O=C(O)C[C@H](NC(=O)c1cc2ccccc2cc1NC(=O)Nc1ccccc1Cl)C(=O)O [Example 151]
Task item: Which of these two has the smaller recorded IC50: P or Q ? # reply format: chosen label
Reply: P

====

# TEST TARGET: human liver glycogen phosphorylase a (HLGPa) (Homo sapiens, UniProt P06737)
# Construct: creating a full-length cDNA fused at the 5′ end to codons for methionine-glycine-alanine-histidine; 6xHis tag (leader Met-Gly-Ala-His6-Gly-Gly) (N); made in house; host or cells: E. coli (bacterial expression plasmid pTXK1007LTev)
# Sequence (P06737 2-847 limits assumed): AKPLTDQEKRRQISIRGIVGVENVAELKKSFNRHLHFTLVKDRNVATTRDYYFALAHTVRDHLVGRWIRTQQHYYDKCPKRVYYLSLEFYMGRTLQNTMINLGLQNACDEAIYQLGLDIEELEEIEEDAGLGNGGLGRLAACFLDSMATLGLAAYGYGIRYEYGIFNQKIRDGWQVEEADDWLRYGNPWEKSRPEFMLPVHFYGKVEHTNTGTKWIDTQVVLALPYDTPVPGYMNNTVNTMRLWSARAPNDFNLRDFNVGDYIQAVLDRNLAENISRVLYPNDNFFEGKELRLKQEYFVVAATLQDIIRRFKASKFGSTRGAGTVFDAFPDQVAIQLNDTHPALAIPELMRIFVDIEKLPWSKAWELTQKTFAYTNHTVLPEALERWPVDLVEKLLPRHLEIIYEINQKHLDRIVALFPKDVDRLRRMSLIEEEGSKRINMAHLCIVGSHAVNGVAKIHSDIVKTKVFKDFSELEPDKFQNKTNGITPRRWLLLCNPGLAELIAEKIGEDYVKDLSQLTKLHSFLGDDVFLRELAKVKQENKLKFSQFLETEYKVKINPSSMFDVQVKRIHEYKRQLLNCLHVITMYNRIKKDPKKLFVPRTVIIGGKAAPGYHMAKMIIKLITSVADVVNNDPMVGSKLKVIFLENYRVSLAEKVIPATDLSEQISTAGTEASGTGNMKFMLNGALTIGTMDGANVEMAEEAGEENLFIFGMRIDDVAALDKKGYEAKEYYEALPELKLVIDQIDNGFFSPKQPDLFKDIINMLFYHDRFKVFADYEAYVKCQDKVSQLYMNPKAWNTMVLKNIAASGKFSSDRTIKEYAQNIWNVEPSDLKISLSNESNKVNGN
# PROTOCOL NOTES: Human liver glycogen phosphorylase a enzymatic activity assay (coupled, fluorescent resorufin readout, with and without 10 mM glucose)
# Assay type: biochemical
# CONDITION: human liver glycogen phosphorylase a enzymatic activity assay
ASSAY ENDPOINT: IC50 (nM)

compound="Cc1cccc(C)c1NC(=O)Nc1ccccc1C(=O)N[C@H](C(=O)O)C1CCCCC1 [Example 94]" recorded_result=530
compound="Cc1cc(F)ccc1-c1cc(C(=O)O)c(NC(=O)Nc2c(Cl)cccc2Cl)s1 [Example 420]" recorded_result=5640
compound="Cc1ccccc1NC(=O)Nc1cc2ccccc2cc1C(=O)N[C@@H](Cc1cccs1)C(=O)O [Example 96]" recorded_result=5070

1: Cc1cc(C)c(NC(=O)Nc2cc(-c3ccc(F)c(F)c3)ccc2C(=O)N[C@@H](COCc2ccccc2)C(=O)O)c(C)c1 [Example 510]
2: O=C(O)C[C@H](NC(=O)c1cc2ccccc2cc1NC(=O)Nc1ccccc1Cl)C(=O)O [Example 9]
3: CC[C@H](C)[C@H](NC(=O)c1cc2ccccc2cc1NC(=O)Nc1c(C)cccc1C)C(=O)O [Example 23]
Task item: Sort ascending by IC50. Form entry: labels listed in requested order.
Reply: 1, 3, 2
